Target Entity: NfsA (Escherichia coli)
Sequence (P17117 1-240): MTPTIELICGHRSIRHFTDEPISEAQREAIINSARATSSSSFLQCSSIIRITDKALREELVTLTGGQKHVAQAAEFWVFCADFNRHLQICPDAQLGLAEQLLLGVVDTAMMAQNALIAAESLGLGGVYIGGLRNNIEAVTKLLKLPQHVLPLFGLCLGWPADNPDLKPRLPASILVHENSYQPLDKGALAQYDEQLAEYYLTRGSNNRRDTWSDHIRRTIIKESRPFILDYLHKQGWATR
Assay Procedure: X-ray crystal structure ([…] Å); steady-state inhibition kinetics with nitrofurazone and NADPH
Type: biochemical
Parameters: untagged full-length, 240 residues, dimer
Readout Label: Ki (µM)

>>> df
                       compound  observed_value
0  O=C(O)/C=C/C(=O)O [fumarate]             145
